Target: T1, Interleukin-15 (human, UniProt P40933 49-162)
T1 construct: Interleukin-15, human, UniProt P40933; see the manufacturer's catalogue number; also called IL-15; source: bought: PeproTech (source E. coli)
T1 sequence (P40933 49-162): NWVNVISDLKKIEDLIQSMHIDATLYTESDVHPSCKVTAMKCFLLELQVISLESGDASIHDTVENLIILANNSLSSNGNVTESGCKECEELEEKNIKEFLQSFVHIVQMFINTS
Assay: SPR; cytokine immobilised on ProteOn GLH sensor chip by amine coupling (9,000-14,000 RU); S100P (wild type or mutant) as analyte, 62 nM-16 µM; 25 °C; 10 mM HEPES, 150 mM NaCl, 1 mM CaCl2, 0.05% TWEEN 20, pH 7.4; heterogeneous ligand model (two ligand populations), one-site model for IL-13; values averaged over analyte concentrations (n = 3-5)
Details: both partners purified
pKd: −log10 of the molar value.
measure.name: pKd

Req: Return pKd for the following binder: Human S100P mutant Δ42–47 (lacks PGFLQS sequence in the 'hinge') (natural protein, S100P protein, human, recombinant, with residues 42-47 (PGFLQS) deleted; source: E. coli, prepared as previously described [28]) MTELETAMGMIIDVFSRYSGSEGSTQTLTKGELKVLMEKELGKDKDAVDKLLKDLDANGDAQVDFSEFIVFVAAITSACHKYFEKAGLK
Resp: < 4.00
